Data provenance: ChEMBL document CHEMBL1122652

assay: Partition coefficient (log P) was the log of ratio of concentration in octanol / water partitioned concentration in phosphate buffer at pH 7.4.; format: physicochemical
Answer each item with its documented logD.
Answer as a number with no unit attached.

IN: If you can, please state the reported logD value of COc1cccc2c1C(=N)c1c(O)c3c(c(O)c1C2=O)C[C@@](O)(C(=O)CO)CC3OC1CC(N2CCOCC2)C(O)C(C)O1.Cl (some centres undefined) .
OUT: 1.8

IN: # get_value(readout='logD', item= COc1cccc2c1C(=O)c1c(O)c3c(c(O)c1C2=O)C[C@@](O)(C(C)O)CC3OC1CC(N2CCOCC2)C(O)C(C)O1 (some centres undefined) )
OUT: 2.03

IN: Reported logD for COc1cccc2c1C(=O)c1c(O)c3c(c(O)c1C2=O)C[C@@](O)(C(=O)CO)CC3OC1CC(N2CCOCC2)C(O)C(C)O1.Cl (some centres undefined) : what is it?
OUT: 1.73

IN: logD for COc1cccc2c1C(=N)c1c(O)c3c(c(O)c1C2=O)C[C@@](O)(C(O)CO)CC3OC1CC(N2CCOCC2)C(O)C(C)O1.Cl (some centres undefined) ?
OUT: 1.43

###

Provide the recorded ΔTm for the entries that follow.
test system: Calf thymus DNA; assay: Change in thermal denaturation temperature of calf thymus DNA; assay type: nucleic-acid assay; conditions: Bos taurus
Hi! Could you send only the number? It should be in °C, unit omitted.

IN: Reported ΔTm, molecule COc1cccc2c1C(=O)c1c(O)c3c(c(O)c1C2=O)C[C@@](O)(C(C)O)CC3OC1CC(N2CCOCC2)C(O)C(C)O1 (stereo partly specified) : ____
OUT: 4.1

IN: // ΔTm lookup, key: COc1cccc2c1C(=O)c1c(O)c3c(c(O)c1C2=O)C[C@@](O)(C(O)CO)CC3OC1CC(N2CCOCC2)C(O)C(C)O1.Cl (stereo partly specified)
OUT: 3.9

IN: So what's the measured ΔTm for this one? COc1cccc2c1C(=N)c1c(O)c3c(c(O)c1C2=O)C[C@@](O)(C(O)CO)CC3OC1CC(N2CCOCC2)C(O)C(C)O1.Cl (stereo partly specified)
OUT: 1.6

IN: Query: ΔTm; subject: COc1cccc2c1C(=O)c1c(O)c3c(c(O)c1C2=O)C[C@@](O)(C(C)=O)CC3OC1CC(N2CCOCC2)C(O)C(C)O1.Cl (stereo partly specified)
OUT: 6.6

IN: Given the molecule COc1cccc2c1C(=O)c1c(O)c3c(c(O)c1C2=O)C[C@@](O)(C(=O)CO)CC3OC1CC(N2CCOCC2)C(O)C(C)O1.Cl (stereo partly specified) , what is its reported ΔTm?
OUT: 9.6

IN: // lookup ΔTm for COc1cccc2c1C(=O)c1c(O)c3c(c(O)c1C2=O)C[C@@](O)(C(C)=O)C[C@@H]3O[C@H]1C[C@H](N)[C@H](O)[C@H](C)O1.Cl [DAUNORUBICIN HYDROCHLORIDE]
OUT: 10.5

###

assay: Partition coefficient (log P) was the log of ratio of concentration in octanol / water partitioned concentration in phosphate buffer at pH 7.4.; type: physicochemical
readout-name: logD
Reply with the value as a number alone.

IN: Returns the measured logD for the input molecule. Input: COc1cccc2c1C(=O)c1c(O)c3c(c(O)c1C2=O)C[C@@](O)(C(C)=O)C[C@@H]3O[C@H]1C[C@H](N)[C@H](O)[C@H](C)O1.Cl [DAUNORUBICIN HYDROCHLORIDE]
OUT: 0.66

IN: Sample COc1cccc2c1C(=O)c1c(O)c3c(c(O)c1C2=O)C[C@@](O)(C(O)CO)CC3OC1CC(N2CCOCC2C#N)C(O)C(C)O1 (some centres undefined) — what was its logD?
OUT: 1.56

IN: Value lookup for logD; key = COc1cccc2c1C(=N)c1c(O)c3c(c(O)c1C2=O)C[C@@](O)(C(=O)CO)CC3OC1CC(N2CCOCC2C#N)C(O)C(C)O1 (some centres undefined)
OUT: 1.97

IN: For COc1cccc2c1C(=O)c1c(O)c3c(c(O)c1C2=O)C[C@@](O)(C(C)=O)CC3OC1CC(N2CCOCC2)C(O)C(C)O1.Cl (some centres undefined) , what is its reported logD?
OUT: 2.31
